test system: CEM cells HIV-1 protection, formazan growth assay; assay: NCI AIDS Antiviral Assay; details: measured here: growth of uninfected CEM cells
pIC50: −log10 of the molar value.
Measured endpoint: pIC50

>>> value_measured("Cn1nc(-c2ccccc2)c(C(=O)/C=C/c2ccc(Cl)cc2)c(N2CCCC2)c1=O")
4.97
>>> value_measured("Cc1ccccc1C1OC1C(=O)c1ccccc1N (stereo not given)")
4.33
>>> value_measured("CC1(c2cccc(C3CCC4(C=CC3=O)OCCO4)c2)OCCO1 (stereo not given)")
5.72

###

system: CEM cells HIV-1 protection, formazan growth assay; assay: NCI AIDS Antiviral Assay;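 active = compounds giving half or more protection of infected cells from virus-caused growth loss, again on retest; inactive = the rest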
Classes used: active, inactive

>>> class_name("CN(C)CCN=C1Nc2ccccc2C(=S)N2CSCC12 (stereo unspecified)")
"inactive"
>>> class_name("O=C(N/N=C/c1ccc(O)cc1)c1ccc(OCc2nc3ccccc3[nH]2)cc1")
"inactive"
>>> class_name("C[n+]1c(-c2ccc(/C=N/Nc3ccnc(N/N=C/c4ccc(-c5cn6ccccc6[n+]5C)cc4)n3)cc2)cn2ccccc21")
"active"
>>> class_name("O=[N+]([O-])/C(Cl)=C/C(=C1/Nc2ccccc2O1)[N+](=O)[O-]")
"inactive"
>>> class_name("CCOC(=O)C(CO)(CC(CO)(C(C)=O)C(=O)OCC)C(C)=O (stereo unspecified)")
"inactive"
>>> class_name("CN(N)c1ncnc2c1cnn2C")
"inactive"
